Sourced from paper PMC5706701

This listing pairs molecules with measured Z-score.
target: Human IP6K1 (Homo sapiens, UniProt Q92551); construct: GST (N, cleaved yes); made in house; host or cells: C43 E. coli, pGEX-6P-2; experiment: IP6K1 high-throughput screen of the Sigma LOPAC (ADP-Glo Max, single point); assay type: biochemical; details: Sigma LOPAC single-point screen; Z-score from plate average and StDev;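 also: final compound concentration 10µM in 5% DMSO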
Sequence (Q92551 whole entry): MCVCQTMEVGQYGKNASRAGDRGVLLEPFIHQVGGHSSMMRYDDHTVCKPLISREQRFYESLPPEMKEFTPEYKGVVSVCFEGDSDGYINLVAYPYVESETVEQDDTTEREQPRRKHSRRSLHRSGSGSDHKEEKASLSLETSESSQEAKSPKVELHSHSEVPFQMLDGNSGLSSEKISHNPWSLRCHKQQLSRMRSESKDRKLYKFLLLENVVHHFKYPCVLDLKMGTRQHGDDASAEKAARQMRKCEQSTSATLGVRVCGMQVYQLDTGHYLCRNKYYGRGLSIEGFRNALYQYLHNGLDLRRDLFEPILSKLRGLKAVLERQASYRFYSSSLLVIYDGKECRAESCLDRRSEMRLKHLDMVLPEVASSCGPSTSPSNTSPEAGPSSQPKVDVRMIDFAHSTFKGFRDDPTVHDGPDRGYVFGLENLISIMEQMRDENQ
Structures can show the parent of a compound that is named as a salt.

{"molecule": "CN1[C@@H]2CC[C@H]1C[C@@H](OC(c1ccccc1)c1ccccc1)C2 [Benztropine mesylate]", "Z-score": 0.4086}
{"molecule": "O=C(O)C1CCCNC1 (racemic) [(±)-Nipecotic acid]", "Z-score": 1.023}
{"molecule": "CCCc1c(OCCCOc2ccc(OCC(=O)O)cc2)ccc(C(C)=O)c1O", "Z-score": 0.5674}
{"molecule": "CS(=O)(=O)O.Cc1c(C(=O)c2cccc3ccccc23)c2cccc3c2n1[C@H](CN1CCOCC1)CO3 [(R)-(+)-WIN 55,212-2 mesylate]", "Z-score": 1.276}
{"molecule": "Br.COc1ccccc1N1CCN(CCCCN2C(=O)c3ccccc3C2=O)CC1 [NAN-190 hydrobromide]", "Z-score": 1.148}
{"molecule": "CC(=O)c1ccc(S(=O)(=O)NC(=O)NC2CCCCC2)cc1 [Acetohexamide]", "Z-score": 1.101}
{"molecule": "NNCCc1ccccc1 [Phenelzine sulfate]", "Z-score": 0.5263}

* * *

molecular target: Human IP6K1 (Homo sapiens, UniProt Q92551); construct: GST (N, cleaved yes); made in house; host or cells: C43 E. coli, pGEX-6P-2; test: IP6K1 high-throughput screen of the Sigma LOPAC (ADP-Glo Max, single point); assay type: biochemical; conditions: Sigma LOPAC single-point screen; Z-score from plate average and StDev;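 also: final compound concentration 10µM in 5% DMSO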
Structures can show the parent of a compound that is named as a salt.
Z-score below 0.6 gives false; Z-score at or above it gives true.

{"molecule": "S=C=Nc1cccc(C2(N3CCCCC3)CCCCC2)c1 [Metaphit methanesulfonate]", "discrete_label": "false"}
{"molecule": "N[C@@H](Cc1c[nH]c2ccccc12)C(=O)O [L-Tryptophan]", "discrete_label": "true"}
{"molecule": "CC[C@@]1(O)C(=O)OCc2c1cc1n(c2=O)Cc2cc3ccccc3nc2-1 [(S)-(+)-Camptothecin]", "discrete_label": "true"}
{"molecule": "CCN(CC)CCOC(=O)c1ccc(N)cc1 [Procaine hydrochloride]", "discrete_label": "true"}
{"molecule": "CC1(C)NC(=O)N(c2ccc([N+](=O)[O-])c(C(F)(F)F)c2)C1=O [Nilutamide]", "discrete_label": "true"}
{"molecule": "CN(Cc1cnc2nc(N)nc(N)c2n1)c1ccc(C(=O)N[C@@H](CCC(=O)O)C(=O)O)cc1 [Methotrexate]", "discrete_label": "false"}
{"molecule": "[Cl-].[Li+] [Lithium Chloride]", "discrete_label": "true"}
{"molecule": "OC(CCN1CCCCC1)(c1ccccc1)C1CCCCC1 (centres unmarked) [Trihexyphenidyl hydrochloride]", "discrete_label": "false"}
{"molecule": "O=C(O)CCc1nc(-c2ccccc2)c(-c2ccccc2)o1 [Oxaprozin]", "discrete_label": "false"}
{"molecule": "C=CCN1CC[C@]23c4c5ccc(O)c4O[C@H]2/C(=N/NC(=O)c2ccccc2)CC[C@@]3(O)[C@H]1C5 [Naloxone benzoylhydrazone]", "discrete_label": "false"}
{"molecule": "CNC(=O)OCC[N+](C)(C)C [Methylcarbamylcholine chloride]", "discrete_label": "true"}
